Target: Dual specificity mitogen-activated protein kinase kinase 5 (Homo sapiens, UniProt Q13163); also: in the data inactive means no Kd found up to 30 µM
Sequence (Q13163 whole entry): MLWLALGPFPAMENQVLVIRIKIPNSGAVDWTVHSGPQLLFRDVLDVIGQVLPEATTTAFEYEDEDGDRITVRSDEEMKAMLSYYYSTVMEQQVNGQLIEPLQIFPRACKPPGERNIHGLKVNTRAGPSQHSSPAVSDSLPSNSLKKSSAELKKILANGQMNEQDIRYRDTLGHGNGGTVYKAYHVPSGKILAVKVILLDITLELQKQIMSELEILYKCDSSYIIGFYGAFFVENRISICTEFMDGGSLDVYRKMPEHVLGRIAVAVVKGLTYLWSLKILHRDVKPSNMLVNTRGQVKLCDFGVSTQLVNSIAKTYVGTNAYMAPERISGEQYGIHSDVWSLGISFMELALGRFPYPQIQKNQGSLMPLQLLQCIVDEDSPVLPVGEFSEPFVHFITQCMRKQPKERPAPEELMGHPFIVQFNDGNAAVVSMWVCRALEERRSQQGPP
Active and inactive are the calls of the source.
Select the matching outcome among active, inactive

**Query** Per the records of this test, what outcome belongs to CNC(=O)c1cc(Oc2ccc(NC(=O)Nc3ccc(Cl)c(C(F)(F)F)c3)c(F)c2)ccn1 [REGORAFENIB] ?
**Result** inactive

**Query** I would be grateful if you could indicate the recorded call for C1=C/COCc2cc(ccc2OCCN2CCCC2)Nc2nccc(n2)-c2cccc(c2)COC/1 [PACRITINIB] .
**Result** inactive

**Query** # lookup: test call for COc1cc(CCc2cc(NC(=O)c3ccc(N4C[C@@H](C)N[C@@H](C)C4)cc3)n[nH]2)cc(OC)c1 [AZD-4547]
**Result** inactive

**Query** Could you please tell me the result logged for CCCS(=O)(=O)Nc1ccc(F)c(C(=O)c2c[nH]c3ncc(-c4ccc(Cl)cc4)cc23)c1F [VEMURAFENIB] in this assay?
**Result** active

---

target: Serine/threonine-protein kinase PLK4 (Homo sapiens, UniProt O00444); also: in the data inactive means no Kd found up to 30 µM
Sequence (O00444 whole entry): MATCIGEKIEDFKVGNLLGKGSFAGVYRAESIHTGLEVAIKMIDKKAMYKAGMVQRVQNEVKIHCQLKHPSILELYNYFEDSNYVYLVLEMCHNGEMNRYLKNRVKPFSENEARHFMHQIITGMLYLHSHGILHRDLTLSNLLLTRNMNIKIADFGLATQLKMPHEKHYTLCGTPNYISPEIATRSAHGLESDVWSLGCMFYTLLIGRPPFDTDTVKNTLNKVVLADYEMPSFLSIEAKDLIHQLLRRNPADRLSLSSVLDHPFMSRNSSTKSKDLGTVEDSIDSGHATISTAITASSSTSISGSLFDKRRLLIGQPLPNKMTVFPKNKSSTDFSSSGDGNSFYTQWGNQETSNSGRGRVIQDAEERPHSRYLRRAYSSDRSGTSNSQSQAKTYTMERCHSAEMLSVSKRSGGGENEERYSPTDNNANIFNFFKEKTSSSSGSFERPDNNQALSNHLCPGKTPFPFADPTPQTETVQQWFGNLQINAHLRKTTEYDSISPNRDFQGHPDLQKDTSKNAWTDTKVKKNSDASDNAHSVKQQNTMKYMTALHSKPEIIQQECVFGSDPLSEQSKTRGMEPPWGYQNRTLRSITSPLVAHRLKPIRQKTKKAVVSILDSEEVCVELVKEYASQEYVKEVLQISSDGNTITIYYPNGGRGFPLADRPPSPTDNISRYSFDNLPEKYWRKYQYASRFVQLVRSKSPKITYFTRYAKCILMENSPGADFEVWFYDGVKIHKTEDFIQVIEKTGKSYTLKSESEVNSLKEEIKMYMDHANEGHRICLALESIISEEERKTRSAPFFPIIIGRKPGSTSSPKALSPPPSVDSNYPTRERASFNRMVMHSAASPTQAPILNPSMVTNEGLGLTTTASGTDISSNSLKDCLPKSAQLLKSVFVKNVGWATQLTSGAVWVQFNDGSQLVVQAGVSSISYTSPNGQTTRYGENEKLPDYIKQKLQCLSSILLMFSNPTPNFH
Active and inactive are the calls of the source.
Pick one: class 1 (active), class 0 (inactive)

**Query** For CNS(=O)(=O)Nc1nccc(Cc2c(C)c3ccc(Oc4ncccn4)cc3oc2=O)c1F [AVUTOMETINIB] , what call appears in the results of this test?
**Result** class 0

**Query** Test call for this molecule, please: CCN1CCN(Cc2ccc(-c3cc4c(N[C@H](C)c5ccccc5)ncnc4[nH]3)cc2)CC1 [AEE-788]
**Result** class 0

**Query** Which outcome was entered for the molecule O=C(Nc1ccc(-c2ccnc(Nc3ccc(N4CCOCC4)cc3)n2)cc1)C1CCCN1 (stereo not given) [XL-019] in this test?
**Result** class 1

**Query** Would you mind telling me which call this test gave CCn1c(=O)c(-c2cc[nH]n2)cc2c(C)nc(N)nc21 [VOXTALISIB] ?
**Result** class 0

**Query** Field: outcome | Entry: CC(=O)Nc1cccc(-n2c(=O)n(C3CC3)c(=O)c3c(Nc4ccc(I)cc4F)n(C)c(=O)c(C)c32)c1 [TRAMETINIB]
**Result** class 0

**Query** # fetch the recorded call for CN1CCC(CNc2ccc3ncc(-c4cccc(OC(F)(F)F)c4)n3n2)CC1 [SGI-1776] here
**Result** class 0

**Query** Which result was noted for this molecule in the test: COC(=O)[C@@]1(O)C[C@H]2O[C@]1(C)n1c3ccccc3c3c4c(c5c6ccccc6n2c5c31)C(=O)NC4 [K-252A]
**Result** class 1

**Query** Status in this test for CNC(=O)CN1CCC(Oc2cc3c(Nc4cccc(Cl)c4F)ncnc3cc2OC)CC1 [SAPITINIB] ?
**Result** class 0

**Query** Hi team, can someone confirm the assay call for CC[C@@H]1C(=O)N(C)c2cnc(Nc3ccc(C(=O)N[C@H]4CC[C@H](N5CCN(CC6CC6)CC5)CC4)cc3OC)nc2N1C(C)C [VOLASERTIB] ?
**Result** class 0

**Query** Test call, this molecule: CNC(=O)c1cc(Oc2ccc(NC(=O)Nc3ccc(Cl)c(C(F)(F)F)c3)c(F)c2)ccn1 [REGORAFENIB]
**Result** class 0
